Assay: reversal of MRP1-mediated doxorubicin resistance, pilot screen, H69AR cells, doxorubicin co-treatment (AID 601)
Conditions: H69AR cells + 2 uM doxorubicin, CellTiter-Glo, 72 h; measured here: viability with 2 uM doxorubicin; at 10 µM; stronger effect = lower value
MEASURE_NAME: viability (%)
Supply the numeric figure in %, leaving out any unit text.

If you can, please state the reported viability value of O=C(NC1CCCC1)C(c1cccs1)N(Cc1ccco1)C(=O)Cn1nnc(-c2cccs2)n1 (stereo not given) . 94.3

Item: CCN(CC)S(=O)(=O)c1cccc(-c2nnc(SCCOc3ccccc3C)o2)c1 69.3

Item: CN(C)c1nc(OCCOC(=O)Nc2ccc(Cl)cc2Cl)nc(N(C)C)n1 79.9

Item: O=c1c2ccccc2[nH]c(=S)n1CCN1CCC(=C(c2ccc(F)cc2)c2ccc(F)cc2)CC1 83.6

Item: Cc1cc(C)nc(NC2=NCC(=O)N2c2ccc(Cl)cc2)n1 95.4

Item: CCN(CC)CCCNC1CCS(=O)(=O)C1 (stereo not given) 83.6

Item: CN(C(=O)c1ccncc1)C1CC(C)(C)N(O)C(C)(C)C1 94.2

Item: CCOC(=O)C1(c2ccccc2)NC(c2ccc(N(C)C)cc2)C2C(=O)N(C)C(=O)C21 (stereo not given) 65.2

Item: Cc1oc(-c2ccccc2F)nc1CS(=O)(=O)CC(=O)N1CCCCCC1 87.1

Item: CCOC(=O)N1CCC(NC(=O)CCC(=O)N2CC(C)Oc3ccc(Cl)cc32)CC1 (stereo not given) 85.8
